Provenance of the data: patent US20090123420A1

Assay: Comparative plasma pharmacokinetics of the stereo-isomers of 1-MT
Type: in vivo, mouse
Conditions: mouse, plasma, po, 50 mg/kg
Procedure: Studies were conducted in conventional mice after IV, PO and SC doses of 50 mg/kg, and IP doses of 25 mg/kg, 50 mg/kg, and 100 mg/kg.
assay-metric: bioavailability

Prompt line: Give bioavailability for the following molecule: Cn1cc(C[C@@H](N)C(=O)O)c2ccccc21 [1-methyl-D-tryptophan]
Response line: 64%
